- TARGET_UNDER_TEST: Mitogen-activated protein kinase kinase kinase 7 (TAK1) (Homo sapiens) (UniProt O43318)
- Sequence (O43318 whole entry, looked up): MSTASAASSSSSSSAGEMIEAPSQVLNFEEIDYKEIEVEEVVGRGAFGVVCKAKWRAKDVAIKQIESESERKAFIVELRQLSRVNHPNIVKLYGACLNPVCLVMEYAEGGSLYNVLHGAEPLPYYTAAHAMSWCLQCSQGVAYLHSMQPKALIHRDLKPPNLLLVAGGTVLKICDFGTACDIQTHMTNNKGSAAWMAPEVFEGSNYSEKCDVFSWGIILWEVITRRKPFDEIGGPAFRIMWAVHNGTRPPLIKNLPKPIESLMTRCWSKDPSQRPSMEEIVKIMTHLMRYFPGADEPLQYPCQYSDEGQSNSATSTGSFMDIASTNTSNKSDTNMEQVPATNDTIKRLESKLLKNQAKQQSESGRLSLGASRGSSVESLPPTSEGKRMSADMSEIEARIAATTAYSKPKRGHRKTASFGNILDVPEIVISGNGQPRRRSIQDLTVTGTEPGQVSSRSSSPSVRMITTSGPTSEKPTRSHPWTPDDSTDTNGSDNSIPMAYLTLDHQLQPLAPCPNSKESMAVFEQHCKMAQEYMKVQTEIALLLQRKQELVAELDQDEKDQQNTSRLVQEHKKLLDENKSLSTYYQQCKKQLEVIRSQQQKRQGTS
- MEASUREMENT_DESCRIPTION: Inhibition of TAK1
ENDPOINT: IC50

Record `CC(C)(C)c1ccc(C(=O)Nc2cn3cc(-n4ccnc4)ccc3n2)cc1` / Mitogen-activated protein kinase kinase kinase 7 (TAK1) (Homo sapiens) (UniProt O43318), IC50 recorded as > 10 µM
